# Tested on: Ramos cells
# assay overview: Cytotoxicity in Ramos cells
# Assay type: cell-based
# condition label: Homo sapiens; cytotoxicity in Ramos cells; read-out: Ramos Cell EC50
metric: EC50

According to the records, this compound COCC(C)NC(=NC(=O)c1ccc(F)c(F)c1)Nc1cc(-c2cc(F)cc(F)c2)n[nH]1 (stereo not drawn) displays EC50 of < 10 µM

// EC50 lookup, compound = CC(C)(C)NC(=NC(=O)c1cccc(Cl)c1)Nc1cc(-c2ccc(Cl)cc2)n[nH]1 , result: < 10 µM

Entry O=C(N=C(NCc1ccc(F)cc1Cl)Nc1cc(-c2ccc(Cl)cc2)n[nH]1)c1ccc(Cl)c(F)c1 — recorded EC50 = > 10 µM

For reference, reported EC50 for CC1(CNC(=NC(=O)c2ccc(Cl)c(F)c2)Nc2cc(-c3ccc(F)cc3)n[nH]2)CCCO1 (stereo not drawn) stands at < 10 µM

# EC50 of Cc1ccccc1CNC(=NC(=O)c1ccc(Cl)cc1)Nc1cc(-c2ccc(F)cc2)n[nH]1 = < 10 µM

# compound O=C(/N=C(\Nc1cc(C(F)(F)F)n[nH]1)NC1CCC1)c1ccc(C(F)(F)F)cc1 ; its EC50 = < 10 µM

Sure, the documented EC50 for CCOC[C@H](C)N/C(=N/C(=O)c1ccc(F)c(F)c1)Nc1cc(-c2cc(F)cc(Cl)c2)n[nH]1 is < 10 µM

Short answer for CC(C)(C)NC(=NC(=O)c1ccc(F)cc1)Nc1cc(-c2ccc(Cl)cc2)n[nH]1 : EC50 was < 10 µM

Per the record, O=C(N=C(NCc1ccc(F)cc1Cl)Nc1cc(-c2ccc(F)cc2)n[nH]1)c1cccc(Cl)c1 has EC50 of < 10 µM

The reported value for CC(C)CNC(=NC(=O)c1cccc(C#N)c1)Nc1cc(-c2ccc(Cl)cc2)n[nH]1 in terms of EC50 is < 10 µM

The reported EC50 of the compound Cc1ccc(-c2cc(NC(=NC(=O)c3ccc(Cl)c(F)c3)NCc3ccc(F)cc3Cl)[nH]n2)cc1 was > 10 µM

Sure, the documented EC50 for CC(C)(C)N/C(=N/C(=O)c1ccc(F)c(F)c1)Nc1cc(C(F)(F)F)n[nH]1 is < 10 µM

Form field EC50, entry CCC(C)(C)N/C(=N/C(=O)c1ccc(F)c(F)c1)Nc1cc(C(F)(F)F)n[nH]1 : < 10 µM

Sample O=C(N=C(Nc1cc(-c2ccc(Cl)cc2)n[nH]1)NC1CCC1)c1ccc(F)c(F)c1 ; EC50 observed: > 10 µM

Looking up COC[C@@H](C)NC(=NC(=O)c1ccc(F)cc1)Nc1cc(-c2ccc(F)cc2)n[nH]1 , I found its EC50 recorded as < 10 µM
